- SUBJECT_OF_TEST: PAS domain-containing serine/threonine-protein kinase (Homo sapiens, UniProt Q96RG2)
- Sequence (Q96RG2 whole entry, the tested form may be a part): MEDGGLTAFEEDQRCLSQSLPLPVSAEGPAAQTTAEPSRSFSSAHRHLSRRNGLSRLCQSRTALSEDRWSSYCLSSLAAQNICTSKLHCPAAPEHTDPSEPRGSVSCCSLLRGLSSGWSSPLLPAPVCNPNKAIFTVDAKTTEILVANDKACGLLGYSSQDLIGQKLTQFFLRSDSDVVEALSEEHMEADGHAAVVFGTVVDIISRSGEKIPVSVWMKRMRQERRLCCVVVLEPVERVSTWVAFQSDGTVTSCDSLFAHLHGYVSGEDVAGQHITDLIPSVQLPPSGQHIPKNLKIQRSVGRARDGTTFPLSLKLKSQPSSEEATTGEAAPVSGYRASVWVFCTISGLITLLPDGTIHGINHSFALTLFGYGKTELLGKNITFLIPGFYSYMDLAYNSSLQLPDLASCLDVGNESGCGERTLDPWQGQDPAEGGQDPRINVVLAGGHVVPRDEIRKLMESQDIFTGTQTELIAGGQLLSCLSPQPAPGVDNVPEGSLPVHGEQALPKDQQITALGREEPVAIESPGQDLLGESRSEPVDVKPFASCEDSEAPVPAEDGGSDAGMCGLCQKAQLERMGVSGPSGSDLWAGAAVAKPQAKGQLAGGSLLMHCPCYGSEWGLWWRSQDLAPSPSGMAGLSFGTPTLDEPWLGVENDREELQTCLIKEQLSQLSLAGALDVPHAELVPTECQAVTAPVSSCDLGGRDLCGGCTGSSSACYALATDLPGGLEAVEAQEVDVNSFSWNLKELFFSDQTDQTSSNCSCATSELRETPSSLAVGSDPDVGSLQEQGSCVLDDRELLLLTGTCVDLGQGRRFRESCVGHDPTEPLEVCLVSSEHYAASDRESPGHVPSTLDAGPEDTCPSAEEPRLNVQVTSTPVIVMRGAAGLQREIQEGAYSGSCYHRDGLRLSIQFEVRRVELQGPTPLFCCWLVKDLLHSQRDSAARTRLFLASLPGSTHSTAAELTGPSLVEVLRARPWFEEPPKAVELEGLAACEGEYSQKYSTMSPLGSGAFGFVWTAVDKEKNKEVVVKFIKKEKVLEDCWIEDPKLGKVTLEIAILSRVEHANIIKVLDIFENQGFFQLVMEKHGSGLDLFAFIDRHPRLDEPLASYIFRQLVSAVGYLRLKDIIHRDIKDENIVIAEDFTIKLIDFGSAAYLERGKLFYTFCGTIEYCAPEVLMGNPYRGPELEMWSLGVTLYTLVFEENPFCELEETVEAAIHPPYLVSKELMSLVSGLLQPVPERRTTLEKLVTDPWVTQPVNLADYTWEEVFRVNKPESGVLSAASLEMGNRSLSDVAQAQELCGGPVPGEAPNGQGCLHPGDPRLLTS
- METHOD_NOTES: Inhibition of human recombinant PASK using Ulight-peptide substrate incubated for 2 hrs by TR-FRET assay
pIC50: −log10 of the molar value.
Reported values of pIC50 for individual entries

>>> print(df.to_string())
                            compound_smiles                           subject_of_test  endpoint_label  result
0  CC(C)N(C)c1nc2cc(C(=O)O)ccc2nc1-c1nc2ccccc2o1  PAS domain-containing serine/threonine-protein kinase (Homo sapiens, UniProt Q96RG2)           pIC50  ≥ 5.00

For `COc1ccc(-c2nc3ccc(C(=O)O)cc3nc2N(C)C(C)C)cn1` , write its pIC50.
≥ 5.00
